target: Ba/F3 EGFR-Del19/T790M (Homo sapiens, UniProt P00533, T790M, cells depend on it, form not given); assay: Ba/F3 viability assay (CellTiter-Glo), EGFR-Del19/T790M (DT); assay type: cell-based; settings: Ba/F3 EGFR-Del19/T790M anti-proliferation; read-out: BAF3 DT IC50
Sequence (P00533 with tags, fused parts or gaps DEL746-750/T790M, form open): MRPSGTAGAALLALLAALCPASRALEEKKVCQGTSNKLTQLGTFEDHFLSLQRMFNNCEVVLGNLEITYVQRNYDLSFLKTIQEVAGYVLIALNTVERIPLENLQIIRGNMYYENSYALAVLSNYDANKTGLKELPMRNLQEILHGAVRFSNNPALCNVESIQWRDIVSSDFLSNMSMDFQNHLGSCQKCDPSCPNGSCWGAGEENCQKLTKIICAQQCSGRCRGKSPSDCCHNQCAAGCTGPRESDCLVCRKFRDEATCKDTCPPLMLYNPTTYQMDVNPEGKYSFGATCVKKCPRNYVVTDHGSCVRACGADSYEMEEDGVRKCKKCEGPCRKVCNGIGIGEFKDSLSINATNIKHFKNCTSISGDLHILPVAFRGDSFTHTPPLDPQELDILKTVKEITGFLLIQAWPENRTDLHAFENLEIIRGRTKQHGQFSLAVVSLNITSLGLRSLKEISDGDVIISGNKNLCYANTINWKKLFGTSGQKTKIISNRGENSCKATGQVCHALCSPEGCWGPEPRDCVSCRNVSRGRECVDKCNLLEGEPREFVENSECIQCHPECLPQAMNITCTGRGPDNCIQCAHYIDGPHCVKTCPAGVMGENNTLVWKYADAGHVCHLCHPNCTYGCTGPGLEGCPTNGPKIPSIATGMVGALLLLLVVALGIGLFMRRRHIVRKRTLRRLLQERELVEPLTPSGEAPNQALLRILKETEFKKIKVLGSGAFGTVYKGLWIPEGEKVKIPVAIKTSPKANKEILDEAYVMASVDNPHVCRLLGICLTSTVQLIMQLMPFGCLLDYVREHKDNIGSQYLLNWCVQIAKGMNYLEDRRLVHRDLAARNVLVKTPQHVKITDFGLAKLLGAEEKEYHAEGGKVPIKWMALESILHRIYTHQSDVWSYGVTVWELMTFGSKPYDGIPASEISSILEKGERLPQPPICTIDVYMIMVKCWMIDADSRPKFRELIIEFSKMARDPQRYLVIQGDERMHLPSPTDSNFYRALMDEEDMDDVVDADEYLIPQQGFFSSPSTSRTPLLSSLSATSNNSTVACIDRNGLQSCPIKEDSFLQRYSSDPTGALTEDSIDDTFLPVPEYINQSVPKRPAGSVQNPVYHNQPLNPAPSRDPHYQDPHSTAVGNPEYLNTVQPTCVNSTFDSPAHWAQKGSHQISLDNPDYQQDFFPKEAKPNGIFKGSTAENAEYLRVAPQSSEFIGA
RESULT_TYPE: GI50

# annotated cases, reported GI50 shown
> print(dat)
                                   compound  result.type  assay.result
1  CCOc1nn(CC(F)F)cc1-c1cnc2cc1O[C@@H](C)CCOc1c(cnn1C)-c1nccc(n1)N2         GI50       < 50 nM
2  C[C@H]1CCOc2c(cnn2C)-c2nccc(n2)Nc2cc(c(-c3cnc(N4CCN(C)CC4)n3C)cn2)O1         GI50  50 to 100 nM
3  C[C@H]1CCOc2c(cnn2C)-c2nccc(n2)Nc2cc(c(-c3ncc(CN4CCOCC4)s3)cn2)O1         GI50       < 50 nM
4  C[C@H]1CCOc2c(cnn2C)-c2nccc(n2)Nc2cc(c(-c3ccc(N4CCN(C)CC4)nc3)cn2)O1         GI50       < 50 nM

// for each compound below, give its GI50
1. CCOc1cc(-c2cnc3cc2O[C@@H](C)CCOc2c(cnn2C)-c2nccc(n2)N3)ccc1CN1CCN(C)CC1
2. C[C@H]1CCOc2c(cnn2C)-c2nccc(n2)Nc2cc(c(-c3cn(C4CC4)nc3OCCF)cn2)O1
3. COC(=O)c1cc(-c2cnc3cc2O[C@@H](C)CCOc2c(cnn2C)-c2nccc(n2)N3)n(C)c1
4. COc1cc(-c2cnc3cc2O[C@@H](C)CCOc2c(cnn2C)-c2nccc(n2)N3)cnc1N1CCN(C)CC1
5. CCOC(=O)CN1CCC(n2cc(-c3cnc4cc3O[C@@H](C)CCOc3c(cnn3C)-c3nccc(n3)N4)c(OCC)n2)CC1
6. C[C@H]1CCOc2c(cnn2C)-c2nccc(n2)Nc2cc(c(-c3ccc(N(C)CCN(C)C)nc3)cn2)O1
7. C[C@H]1CCOc2c(cnn2C)-c2nccc(n2)Nc2cc(c(-c3cnc(N4CCN(C)CC4)c(OCC(F)(F)F)c3)cn2)O1

1. < 50 nM
2. < 50 nM
3. 100 to 1000 nM
4. < 50 nM
5. < 50 nM
6. 50 to 100 nM
7. 50 to 100 nM

// for each compound below, give its GI50
1. C[C@H]1CCOc2c(cnn2C)-c2nccc(n2)Nc2cc(c(-c3cc4ccccc4n3C)cn2)O1
2. C[C@H]1CCOc2c(cnn2C)-c2nccc(n2)Nc2cc(c(-c3ccc(N(C)CCN(C)C)cc3)cn2)O1
3. C[C@H]1CCOc2c(cnn2C)-c2nccc(n2)Nc2cc(c(-c3cn(CCN4CCCC4)nc3OCC(F)(F)F)cn2)O1
4. CCOc1nn(C2CC3CCC(C2)N3C)cc1-c1cnc2cc1O[C@@H](C)CCOc1c(cnn1C)-c1nccc(n1)N2 (stereo partly drawn)
5. C[C@H]1CCOc2c(cnn2C)-c2nccc(n2)Nc2cc(c(-c3ncc(CN4CCN(C)CC4)s3)cn2)O1
6. CCCOc1nn(C2CC2)cc1-c1cnc2cc1O[C@@H](C)CCOc1c(cnn1C)-c1nccc(n1)N2
7. C[C@H]1CCOc2c(cnn2C)-c2nccc(n2)Nc2cc(ccn2)O1
8. C[C@H]1CCOc2c(cnn2C)-c2nccc(n2)Nc2cc(c(Nc3ccn(C)n3)cn2)O1

1: 100 to 1000 nM; 2: < 50 nM; 3: < 50 nM; 4: < 50 nM; 5: < 50 nM; 6: < 50 nM; 7: 100 to 1000 nM; 8: < 50 nM

Ref: patent US20240150375A1
